# TESTED SYSTEM: human V2 receptor (Homo sapiens)
# Construct: A DNA fragment containing a human V2 receptor code region
# Sequence (P30518 whole entry, the tested form may be a part): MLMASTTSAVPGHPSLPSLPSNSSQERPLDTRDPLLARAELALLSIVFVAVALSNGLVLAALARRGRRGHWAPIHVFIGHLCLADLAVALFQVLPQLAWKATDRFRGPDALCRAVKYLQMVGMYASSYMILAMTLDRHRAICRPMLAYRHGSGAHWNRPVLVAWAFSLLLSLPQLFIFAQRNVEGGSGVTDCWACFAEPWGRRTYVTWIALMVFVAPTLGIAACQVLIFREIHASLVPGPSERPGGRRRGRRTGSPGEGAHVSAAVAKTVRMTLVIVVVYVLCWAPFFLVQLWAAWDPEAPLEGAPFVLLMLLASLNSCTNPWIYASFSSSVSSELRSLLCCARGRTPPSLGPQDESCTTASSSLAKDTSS
# RUN DESCRIPTION: cAMP production test in V2 receptor expression cell
# CONDITION INFO: human V2 receptor expression cell, 30 minutes at room temperature, HTRF cAMP kit
pEC50: −log10 of the molar value.
MEASUREMENT NAME: pEC50

As a guide, the following entries are already answered.
>  <MOLECULE>
C[C@@H]1CN(C(=O)c2ccc(N3CCCC3)cc2Cl)c2ccccc2CC1C(=O)O (mixture of isomers)

>  <NUMBER>
10.00

$$$$
>  <MOLECULE>
CCCOc1ccc(C(=O)N2CCC(C)(C(=O)NC(C)CO)Cc3ccccc32)c(Cl)c1 (racemic)

>  <NUMBER>
8.47

$$$$
>  <MOLECULE>
CC(NC(=O)C1(C)CCN(C(=O)c2ccc(N3CCCC3)cc2C(F)(F)F)c2ccccc2C1)C(N)=O (single isomer, unassigned)

>  <NUMBER>
9.41

$$$$

[A] COC(=O)C1(F)Cc2ccccc2N(C(=O)c2ccc(N3CCCC3)cc2Cl)CC1C (racemic)
[B] COC(=O)C1(C)CCN(C(=O)c2ccc(N3CCCC3)cc2Cl)c2ccccc2C1 (racemic)
[C] Cc1cc(N2CCC(C)C2)ccc1C(=O)N1CCC(F)(C(=O)NCC(N)=O)Cc2ccccc21 (racemic)
[D] CCNC(=O)CNC(=O)C1(C)CCN(C(=O)c2ccc(N3CCCC3)cc2Cl)c2ccccc2C1 (racemic)
## Task Hey, quick one: sort these by pEC50, low to high? Provide the ranking by listing each label in its place in the requested order.
## Result B, D, C, A
(B: 8.10, D: 8.55, C: 9.00, A: 10.00)
